Recorded values, source PubChem BioAssay.

protocol_description: drug combination growth inhibition, ovarian cancer – cell-based, oncology-focused library, rucaparib conditional, profiling panel (AID 1508598)
test_parameters: patient-derived ovarian cancer cells, CellTiter-Glo viability, 144 h; at 0.00488 µM; OCI-C5x cells; with rucaparib 10 µM; hits give low values; 100% = cells with rucaparib alone
quantity: viability (%)
Please reply with the bare figure in % and do not write the unit itself.

Worked cases, viability given:
COc1cccc2c1C(=O)c1c(O)c3c(c(O)c1C2=O)C[C@@](O)(C(C)=O)C[C@H]3O[C@H]1C[C@H](N)[C@H](O)[C@H](C)O1 : 125
Nc1nc(F)nc2c1ncn2[C@H]1O[C@H](CO)[C@@H](O)[C@@H]1O : 112

Task item: Give the measured viability of CC(C)NCCCn1c(Sc2cc3c(cc2I)OCO3)nc2c(N)ncnc21 .
Reply: 119

Task item: Need viability, item Cc1[nH]c(C=C2C(=O)Nc3ccc(S(=O)(=O)N(C)c4cccc(Cl)c4)cc32)c(C)c1C(=O)N1CCN(C)CC1
Reply: 118

Task item: Suppose we examine the molecule N[C@@H]1CCCN(c2c(/C=C3\SC(=O)NC3=O)cccc2-c2ccccc2)C1 ; what viability value has been reported?
Reply: 119

Task item: Bench note: what viability did O=C(O)c1cc(I)ccc1NC(=O)[C@H](Cc1ccccc1)NCc1ccccc1 show?
Reply: 133

Task item: // returns reported viability for input C[C@]12CC[C@H]3c4ccc(O)cc4CC[C@H]3[C@@H]1CCC2=O
Reply: 115

Task item: Consider the molecule CC(=O)[C@]1(O)Cc2c(O)c3c(c(O)c2[C@H](O[C@H]2C[C@H](N)[C@H](O)[C@H](C)O2)C1)C(=O)c1ccccc1C3=O and give its measured viability.
Reply: 104
